Sourced from ChEMBL document CHEMBL1147152

System: Spleen
Experiment: Biodistribution in spleen of Sprague-Dawley rat at 50 to 350 uCi, iv
Format: ADME, organism-based
Settings: in vivo
property-name: Drug uptake (% ID/g)

See these solved cases before continuing.
>>> experimental_value("N=[11C](N)NCCc1cccc(O)c1")
0.63
>>> experimental_value("N=[11C](N)NCCc1cc(O)ccc1F")
0.43
>>> experimental_value("N=[11C](N)NCC(O)c1cccc(O)c1 (configuration not stated)")
0.63
>>> experimental_value("N=[11C](N)NC[C@H](O)c1ccccc1")
0.88
>>> experimental_value("N=[11C](N)NCCc1ccc(F)c(O)c1")
0.52

(1) N=[11C](N)NCCc1ccc(O)cc1
(2) [11CH3]NC[C@H](O)c1ccc(O)c(O)c1 [[11C]EPINEPHRINE]
Returns: the label, 1 or 2 , whose recorded Drug uptake is the lower number. Field: selected label. Fill in the label of the entry you choose.
2
(2: 0.64 % ID/g, 1: 0.97 % ID/g)

---

Assay: Ratio of drug level in heart to blood in macaque rhesus monkey at 4.8 mCi, iv
Assay type: ADME, organism-based, Macaca mulatta
property-name: Kp
Reply briefly: the number, and no unit.

Can you look up the measured Kp of `N=[11C](N)NCCc1cccc(O)c1` for me?
4.7

---

Test system: Liver
Test: Biodistribution in liver of Sprague-Dawley rat at 50 to 350 uCi, iv
Type: ADME, organism-based
Conditions: in vivo
property-name: Drug uptake (% ID/g)

Look over these answered cases.
>>> experimental_value("N=[11C](N)NCCc1ccc(F)c(O)c1")
1.22
>>> experimental_value("N=[11C](N)NCCc1cc(O)ccc1F")
0.92
>>> experimental_value("N=[11C](N)NCCc1ccc(O)cc1")
0.84
>>> experimental_value("N=[11C](N)NCC(O)c1cccc(O)c1 (configuration not stated)")
2.71

(A) [11CH3]NC[C@H](O)c1ccc(O)c(O)c1 [[11C]EPINEPHRINE]
(B) N=[11C](N)NC[C@H](O)c1ccccc1
(C) N=[11C](N)NCCc1cccc(O)c1
Write the entries in order, lowest recorded Drug uptake first. Kindly provide the labels arranged according to the requested ordering.
C, A, B

---

Experiment: Ratio of drug level in heart to blood in macaque rhesus monkey at 5.4 mCi, iv
Format: ADME, organism-based, Macaca mulatta
property-name: Kp
# respond with the number and nothing more

Consider the molecule `C[C@H](N[11CH3])[C@H](O)c1cccc(O)c1` and give its measured Kp.
4.5

---

Test: Drug clearance rate in isolated Sprague-Dawley rat heart
Format: ADME, tissue-based
property-name: half-life (h)

>>> experimental_value("N=[11C](N)NCCc1ccccc1F")
2.3
>>> experimental_value("COc1ccc(CCN[11C](=N)N)cc1")
2.3
>>> experimental_value("N=[11C](N)NCCc1cccc(F)c1")
1.9
>>> experimental_value("N=[11C](N)NCCc1cccc(I)c1")
2.4

---

Tested on: Blood
Assay: Biodistribution in blood of Sprague-Dawley rat at 50 to 350 uCi, iv
Format: ADME, organism-based
Details: in vivo
property-name: Drug uptake (% ID/g)

// solved cases for Drug uptake follow
>>> experimental_value("C[C@H](N[11CH3])[C@H](O)c1cccc(O)c1")
0.08
>>> experimental_value("N=[11C](N)NCCc1ccc(O)cc1")
0.16
>>> experimental_value("[11CH3]NC[C@H](O)c1ccc(O)c(O)c1 [[11C]EPINEPHRINE]")
0.13
>>> experimental_value("N=[11C](N)NCCc1cc(O)ccc1F")
0.07
>>> experimental_value("N=[11C](N)NCCc1cccc(O)c1")
0.07

(A) N=[11C](N)NC[C@H](O)c1ccccc1
(B) N=[11C](N)NCC(O)c1cccc(O)c1 (stereo not drawn)
Of A and B , which one carries the higher reported Drug uptake? Answer by quoting the chosen item's label.
B
(B: 0.14 % ID/g, A: 0.09 % ID/g)

---

Assay: Biodistribution in left ventricle of Sprague-Dawley rat at 50 to 350 uCi, iv
Format: ADME, organism-based, Heart left ventricle
Conditions: in vivo
property-name: Drug uptake (% ID/g)

Here is how some molecules turned out for Drug uptake.
>>> experimental_value("N=[11C](N)NCC(O)c1cccc(O)c1 (configuration not stated)")
1.17
>>> experimental_value("N=[11C](N)NC[C@H](O)c1ccccc1")
1.91

(1) N=[11C](N)NCCc1cc(O)ccc1F
(2) [11CH3]NC[C@H](O)c1ccc(O)c(O)c1 [[11C]EPINEPHRINE]
(3) N=[11C](N)NCCc1ccc(O)cc1
Endpoint returns the given molecules ordered by ascending Drug uptake. Write the labels out in the order the request specifies.
1, 2, 3

---

System: Heart
Test: Neuronal drug uptake rate in isolated Sprague-Dawley rat heart
Type: ADME, tissue-based
property-name: Kup (mL/min/g)

Field: example entries. Status: answers known.
>>> experimental_value("N=[11C](N)NCCc1ccc(I)cc1")
0.56
>>> experimental_value("N=[11C](N)NCCc1cc(O)ccc1F")
0.49
>>> experimental_value("N=[11C](N)NCCc1cccc(O)c1")
1.96

(A) N=[11C](N)NCCc1ccc(F)c(O)c1
(B) N=[11C](N)NCCc1ccc(O)cc1
(C) N=[11C](N)NC[C@H](O)c1ccccc1
Would you mind ranking these compounds by ascending Kup? Reply format: the labels, ordered as requested.
C, A, B

---

Test: Drug clearance rate in isolated Sprague-Dawley rat heart
Type: ADME, tissue-based
property-name: half-life (h)

>>> experimental_value("N=[11C](N)NCCc1ccccc1 [[11C]PHENETHYLGUANIDINE]")
3.3

(1) N=[11C](N)NC[C@H](O)c1ccccc1
(2) N=[11C](N)NCCc1ccc(I)cc1
(3) N=[11C](N)NCCc1ccc(F)cc1
Sort low-to-high on half-life, please. Answer by writing out the labels in the requested order.
2, 3, 1
(2: 1.9 h, 3: 4.4 h, 1: 22 h)

---

System: Heart
Assay: Neuronal drug uptake rate in isolated Sprague-Dawley rat heart
Assay type: ADME, tissue-based
property-name: Kup (mL/min/g)

Examples with answers:
>>> experimental_value("N=[11C](N)NCCc1cccc(F)c1")
0.24
>>> experimental_value("N=[11C](N)NCC(O)c1cccc(O)c1 (configuration not stated)")
0.3
>>> experimental_value("N=[11C](N)NCCc1cccc(I)c1")
1.1
>>> experimental_value("N=[11C](N)NCCc1ccc(F)cc1")
0.63
>>> experimental_value("N=[11C](N)NCCc1ccccc1F")
1.76

(P) N=[11C](N)NCCc1ccccc1 [[11C]PHENETHYLGUANIDINE]
(Q) COc1ccc(CCN[11C](=N)N)cc1
For P and Q , which recorded Kup is lower? Lab note: record the label of whichever item you select.
Q
(Q: 0.73 mL/min/g, P: 1.56 mL/min/g)

---

Test system: Adrenal medulla
Assay: Biodistribution in adrenal medulla of Sprague-Dawley rat at 50 to 350 uCi, iv
Assay type: ADME, organism-based
Settings: in vivo
property-name: Drug uptake (% ID/g)

(A) N=[11C](N)NCC(O)c1cccc(O)c1 (configuration not stated)
(B) N=[11C](N)NCCc1cccc(O)c1
(C) [11CH3]NC[C@H](O)c1ccc(O)c(O)c1 [[11C]EPINEPHRINE]
Order these molecules (above) by their Drug uptake, from the smallest value upward. # the answer lists labels in the order requested
A, C, B

---

Tested on: Lung
Test: Biodistribution in lung of Sprague-Dawley rat at 50 to 350 uCi, iv
Format: ADME, organism-based
Conditions: in vivo
property-name: Drug uptake (% ID/g)

Consider the worked cases shown below.
>>> experimental_value("C[C@H](N[11CH3])[C@H](O)c1cccc(O)c1")
0.4
>>> experimental_value("[11CH3]NC[C@H](O)c1ccc(O)c(O)c1 [[11C]EPINEPHRINE]")
0.39
>>> experimental_value("N=[11C](N)NCCc1ccc(F)c(O)c1")
0.56

(a) N=[11C](N)NC[C@H](O)c1ccccc1
(b) N=[11C](N)NCCc1cc(O)ccc1F
Between these two entries, a and b , state which has the higher Drug uptake. Refer to your chosen entry by its label in the reply.
a
(a: 0.86 % ID/g, b: 0.34 % ID/g)

---

Test system: Muscle tissue
Experiment: Biodistribution in muscle of Sprague-Dawley rat at 50 to 350 uCi, iv
Assay type: ADME, organism-based
Settings: in vivo
property-name: Drug uptake (% ID/g)

Some solved cases for reference:
>>> experimental_value("N=[11C](N)NCCc1ccc(F)c(O)c1")
0.07
>>> experimental_value("N=[11C](N)NCC(O)c1cccc(O)c1 (stereo not drawn)")
0.07
>>> experimental_value("N=[11C](N)NCCc1cccc(O)c1")
0.07

(1) N=[11C](N)NC[C@H](O)c1ccccc1
(2) N=[11C](N)NCCc1cc(O)ccc1F
(3) [11CH3]NC[C@H](O)c1ccc(O)c(O)c1 [[11C]EPINEPHRINE]
Please order the records by their reported Drug uptake, lowest number first. Provide the labels, sequenced as the question asks.
2, 1, 3
